- EXPERIMENTAL SYSTEM: Serine/threonine-protein kinase B-raf (Homo sapiens, UniProt P15056, V600E)
- Sequence (P15056 2-766 V600E limits assumed): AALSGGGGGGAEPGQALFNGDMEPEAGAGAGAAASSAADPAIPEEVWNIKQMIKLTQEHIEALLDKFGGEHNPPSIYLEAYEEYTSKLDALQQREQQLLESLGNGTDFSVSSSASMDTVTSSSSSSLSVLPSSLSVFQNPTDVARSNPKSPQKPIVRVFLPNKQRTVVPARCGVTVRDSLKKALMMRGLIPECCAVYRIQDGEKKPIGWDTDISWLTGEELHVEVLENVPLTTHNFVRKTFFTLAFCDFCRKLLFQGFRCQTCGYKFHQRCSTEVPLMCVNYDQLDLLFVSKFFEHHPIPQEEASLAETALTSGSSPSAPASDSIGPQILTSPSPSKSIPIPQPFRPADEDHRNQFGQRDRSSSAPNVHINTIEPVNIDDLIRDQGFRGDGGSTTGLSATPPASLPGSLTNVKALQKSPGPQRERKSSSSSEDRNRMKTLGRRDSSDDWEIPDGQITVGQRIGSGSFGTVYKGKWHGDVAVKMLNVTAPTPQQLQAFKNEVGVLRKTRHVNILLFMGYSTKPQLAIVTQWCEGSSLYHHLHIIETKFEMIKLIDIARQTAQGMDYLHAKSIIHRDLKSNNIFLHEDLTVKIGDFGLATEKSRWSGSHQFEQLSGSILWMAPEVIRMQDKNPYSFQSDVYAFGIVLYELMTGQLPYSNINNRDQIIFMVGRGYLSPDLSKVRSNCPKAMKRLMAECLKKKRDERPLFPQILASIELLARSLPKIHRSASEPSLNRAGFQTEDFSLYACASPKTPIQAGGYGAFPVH
- ASSAY NOTES: Inhibition of B-Raf V600E mutant in human Malme-3M cells assessed as basal ERK phosphorylation
- Format: cell-based
ATTRIBUTE MEASURED: IC50

Query: Look up IC50 of CCCS(=O)(=O)Nc1ccc(F)c(C(=O)Nc2cnc3[nH]c(-c4ccc(C#N)cc4)nc3c2)c1F and report it.
Response: 239 nM

Query: Annotate the molecule CCCS(=O)(=O)Nc1ccc(F)c(C(=O)Nc2cnc3[nH]c(-c4ccccc4Br)nc3c2)c1F with its measured IC50.
Response: 948 nM

Query: For the molecule CCCS(=O)(=O)Nc1ccc(F)c(C(=O)Nc2cnc3[nH]c(-c4ccccc4F)nc3c2)c1F , report IC50.
Response: 167 nM

Query: Respond only with IC50 recorded for CCCS(=O)(=O)Nc1ccc(F)c(C(=O)Nc2cnc3cc(-c4ccc(Cl)cc4)nn3c2)c1F
Response: 90 nM

Query: State its IC50 for this molecule: CCCS(=O)(=O)Nc1ccc(F)c(C(=O)Nc2cnc3[nH]c(-c4ccc(Cl)cc4)nc3c2)c1F
Response: 157 nM

Query: Please indicate IC50 recorded for CCCS(=O)(=O)Nc1ccc(F)c(C(=O)Nc2cnc3[nH]c(-c4ccc(C(F)(F)F)cc4)nc3c2)c1F
Response: 89 nM

Query: Using the record for CCCS(=O)(=O)Nc1ccc(F)c(C(=O)Nc2cnc3[nH]c(-c4ccccc4)nc3c2)c1F , state its measured IC50.
Response: 132 nM

Query: Respond only with IC50 recorded for CCCS(=O)(=O)Nc1ccc(F)c(C(=O)Nc2cnc3[nH]c(-c4ccc(Cl)cc4)cc3c2)c1F
Response: 20 nM

----------
Form field: pIC50 (one value per entry).
- EXPERIMENTAL SYSTEM: Serine/threonine-protein kinase B-raf (Homo sapiens, UniProt P15056, V600E)
- ASSAY NOTES: Inhibition of full length B-Raf V600E mutant (unknown origin)
API: returns pIC50 as number; meaning -log10 of concentration in mol/L.

For orientation, consider the following solved cases.
Query: State its pIC50 for this compound: CCCS(=O)(=O)Nc1ccc(F)c(C(=O)Nc2cnc3[nH]c(-c4cccc(OC)c4)nc3c2)c1F
Response: 8.92

Query: Note down pIC50 recorded for CCCS(=O)(=O)Nc1ccc(F)c(C(=O)Nc2cnc3[nH]ncc3c2)c1F
Response: 7.74

Query: Answer with reported pIC50 of CCCS(=O)(=O)Nc1ccc(F)c(C(=O)Nc2cnc3[nH]c(-c4ccccc4F)nc3c2)c1F
Response: 8.10

More entries:
Query: Dear colleague, please send me the reported pIC50 for CCCS(=O)(=O)Nc1ccc(F)c(C(=O)Nc2cnc3[nH]c(C4CCCNC4)nc3c2)c1F (centres undefined) when you can.
Response: 6.78

Query: Determine its reported pIC50: CCCS(=O)(=O)Nc1ccc(F)c(C(=O)Nc2cnc3[nH]c(-c4ccc(OC)cc4)nc3c2)c1F
Response: 8.96

Query: Look up and report measured pIC50 for this entry: CCCS(=O)(=O)Nc1ccc(F)c(C(=O)Nc2cnc3[nH]ccc3c2)c1F
Response: 7.38

Query: Query pIC50 for CCCS(=O)(=O)Nc1ccc(F)c(C(=O)Nc2cnc3[nH]c(-c4ccc(Cl)cc4)nc3c2)c1F
Response: 8.66

Query: Quick one: give measured pIC50 for CCCS(=O)(=O)Nc1ccc(F)c(C(=O)Nc2cnc3[nH]c(C(C)C)nc3c2)c1F
Response: 7.22

Query: # return recorded pIC50 for entry CCCS(=O)(=O)Nc1ccc(F)c(C(=O)Nc2cnc3[nH]c(-c4cccc(C(F)(F)F)c4)nc3c2)c1F
Response: 9.00
